- Test system: total α-tubulin
- Test Summary: cell-based assay of MT-stabilization: total α-tubulin in QBI293 cell lysates by ELISA
- Measurement Setup: QBI293, 4 h, Table 4; QB1293 cells, 4 h, 1 μM; read-out: α-Tub l μM (fold-change over control (DMSO)-treated cells)
Where a name gives a salt, the structure may show the parent alone.
Please respond with reported fold induction at 1 µM for every item in the list.
Give bare numbers.

Below are some compounds; for each one, tell me its fold induction at 1 µM.
1. C[C@@H](Nc1c(-c2c(F)cc(C#CCCN)cc2F)c(Cl)nc2ncnn12)C(C)(C)C [TAL-580, hydrochloride]
2. C[C@H](Nc1c(-c2c(F)cc(C#CCCCO)cc2F)c(Cl)nc2ncnn12)C(F)(F)F [TAL-642]

Response given:
1: 0.96; 2: 0.93

----------
Can you tell me fold induction at 10 µM for the items I'm about to list?
- System: total α-tubulin
- Test Summary: cell-based assay of MT-stabilization: total α-tubulin in QBI293 cell lysates by ELISA
- Measurement Setup: QBI293, 4 h, Table 4; QB1293 cells, 4 h, 10 μM; read-out: α-Tub 10 μM (fold-change over control (DMSO)-treated cells)
Where a name gives a salt, the structure may show the parent alone.

CNCC#Cc1cc(F)c(-c2c(Cl)nc3ncnn3c2N[C@H](C)C(C)(C)C)c(F)c1 [TAL-638, hydrochloride] :: 1

Hi! Can you tell me fold induction at 10 µM for each of these compounds?
1. [2H]C([2H])(O)CC#Cc1cc(F)c(-c2c(Cl)nc3ncnn3c2N[C@H](C)C(C)(C)C)c(F)c1
2. C[C@H](Nc1c(-c2c(F)cc(C#CCCCO)cc2F)c(Cl)nc2ncnn12)C(F)(F)F
3. C[C@@H](Nc1c(-c2c(F)cc(C#CCCN(C)C)cc2F)c(Cl)nc2ncnn12)C(C)(C)C

Response given:
1: 1.01; 2: 0.87; 3: 0.96

----------
- Test Summary: Plasma and brain compound determinations (LC-MS/MS)
- Format: in vivo
- Measurement Setup: CD1, mouse, plasma, 2.5 mg/kg, CD1 mice, 2.5 mg/kg each, dosed concurrently, one hour after dosing; mean, n=3; read-out: Plasma Concentration, Mean
- Method: CD1 mice (n=3) were dosed concurrently with CNDR-51990 and CNDR-51993 (representing a 1:1 mixture of two diastereoisomers, 52017 (67) and 52016 (68)) at 2.5 mg/kg each). One hour after dosing, mice were euthanized and blood collected, followed by perfusion with saline. Mouse brains were homogenized in 10 mM ammonium acetate, pH 5.7 (1:2; w/v) using a handheld sonic homogenizer. […]
Kindly supply the reported concentration at 1 h values for the records listed here.
Give bare numbers, in ng/mL.

Field: concentration at 1 h. Fill in for each record below.
1. CC(C)[C@@H](C)Nc1c(-c2ccc(C#N)cc2F)c(Cl)nc2ncnn12 [CNDR-51993]
2. C[C@@H](Nc1c(-c2ccc(C#N)cc2F)c(Cl)nc2ncnn12)C(C)(C)C [Compound 70]

Response given:
1: 206; 2: 151

----------
- Test Summary: B/P of Table 4
- Measurement Setup: in vivo
Where a name gives a salt, the structure may show the parent alone.
Can you tell me Kp for the items I'm about to list?
One number for each entry.

Please review the following examples before continuing.
[2H]C([2H])(O)CC#Cc1cc(F)c(-c2c(Cl)nc3ncnn3c2N[C@H](C)C(C)(C)C)c(F)c1 :: 0.46
C[C@@H](Nc1c(-c2c(F)cc(C#CCCO)cc2F)c(Cl)nc2ncnn12)C(C)(C)C :: 0.47
CC(C)[C@@H](C)Nc1c(-c2c(F)cc(C#CCCO)cc2F)c(Cl)nc2ncnn12 :: 0.44

Challenge: Tell us which Kp value is on record for C[C@@H](Nc1c(-c2c(F)cc(C#CCCN)cc2F)c(Cl)nc2ncnn12)C(C)(C)C [TAL-580, hydrochloride]
Response given: 1.04

----------
- Test Summary: Plasma and brain compound determinations (LC-MS/MS)
- Type: in vivo
- Measurement Setup: CD1, mouse, brain, 2.5 mg/kg, CD1 mice, 2.5 mg/kg each, dosed concurrently, one hour after dosing; mean, n=3; read-out: Brain Concentration, Mean
For each entry below, report its concentration at 1 h value.
Answers are plain numbers, in ng/g.

Could you report concentration at 1 h for every entry in the following list?
1. CC(C)[C@@H](C)Nc1c(-c2ccc(C#N)cc2F)c(Cl)nc2ncnn12
2. C[C@@H](Nc1c(-c2ccc(C#N)cc2F)c(Cl)nc2ncnn12)C(C)(C)C

Response given:
225
183

----------
I'd appreciate it if you could supply concentration at 1 h values for the items below.
- Test Summary: Plasma and brain compound determinations (LC-MS/MS)
- Format: in vivo
- Measurement Setup: CD1, mouse, brain, 2.5 mg/kg, CD1 mice, 2.5 mg/kg each, dosed concurrently, one hour after dosing; individual animals 1-3; read-out: Brain Concentration
- Method: CD1 mice (n=3) were dosed concurrently with CNDR-51990 and CNDR-51993 (representing a 1:1 mixture of two diastereoisomers, 52017 (67) and 52016 (68)) at 2.5 mg/kg each). One hour after dosing, mice were euthanized and blood collected, followed by perfusion with saline. Mouse brains were homogenized in 10 mM ammonium acetate, pH 5.7 (1:2; w/v) using a handheld sonic homogenizer. […]

CC(C)[C@@H](C)Nc1c(-c2ccc(C#N)cc2F)c(Cl)nc2ncnn12 [CNDR-51993] :: 209 ng/g

Next item in the queue.
Challenge: Quickly give me recorded concentration at 1 h for C[C@@H](Nc1c(-c2ccc(C#N)cc2F)c(Cl)nc2ncnn12)C(C)(C)C [Compound 70]
Response given: 158 ng/g

----------
- Test Summary: Plasma and brain compound determinations (LC-MS/MS)
- Format: in vivo
- Measurement Setup: CD1, mouse, plasma, 2.5 mg/kg, CD1 mice, 2.5 mg/kg each, dosed concurrently, one hour after dosing; individual animals 1-3; read-out: Plasma Concentration
Measurement Kind: concentration at 1 h (ng/mL)
One number for each entry, in ng/mL.

CC(C)[C@@H](C)Nc1c(-c2ccc(C#N)cc2F)c(Cl)nc2ncnn12 [CNDR-51993] :: 242

Consider the record given below.
Challenge: Output concentration at 1 h of C[C@@H](Nc1c(-c2ccc(C#N)cc2F)c(Cl)nc2ncnn12)C(C)(C)C [Compound 70]
Response given: 175

----------
- Tested on: total α-tubulin
- Test Summary: cell-based assay of MT-stabilization: total α-tubulin in QBI293 cell lysates by ELISA
- Measurement Setup: QBI293, 4 h, Table 4; QB1293 cells, 4 h, 1 μM; read-out: α-Tub l μM (fold-change over control (DMSO)-treated cells)
Would you mind telling me the reported fold induction at 1 µM of each entry?

C#Cc1cc(F)c(-c2c(Cl)nc3ncnn3c2N[C@H](C)C(C)C)c(F)c1 :: 0.98

Below is a list of compounds. For each, state its recorded fold induction at 1 µM.
1. C[C@@H](Nc1c(-c2c(F)cc(C#CCCCO)cc2F)c(Cl)nc2ncnn12)C(C)(C)C
2. C[C@H](Nc1c(-c2c(F)cc(I)cc2F)c(Cl)nc2ncnn12)C(F)(F)F
3. C[C@@H](Nc1c(-c2c(F)cc(C#CCCO)cc2F)c(Cl)nc2ncnn12)C(C)(C)C
4. Cc1nc2nc(Cl)c(-c3c(F)cc(C#CCCO)cc3F)c(N(C)[C@H](C)C(C)C)n2n1
5. [2H]C([2H])(O)CC#Cc1cc(F)c(-c2c(Cl)nc3ncnn3c2N[C@H](C)C(C)(C)C)c(F)c1

Response given:
1: 1.18; 2: 1.01; 3: 0.98; 4: 0.91; 5: 1.02

----------
- Tested on: total α-tubulin
- Test Summary: cell-based assay of MT-stabilization: total α-tubulin in QBI293 cell lysates by ELISA
- Measurement Setup: QBI293, 4 h, Table 4; QB1293 cells, 4 h, 10 μM; read-out: α-Tub 10 μM (fold-change over control (DMSO)-treated cells)
Structures can show the parent of a compound that is named as a salt.
Kindly state fold induction at 10 µM for each of the entries shown.
Numbers only.

C[C@H](Nc1c(-c2c(F)cc(I)cc2F)c(Cl)nc2ncnn12)C(F)(F)F :: 0.93
Cc1nc2nc(Cl)c(-c3c(F)cc(C#CCCO)cc3F)c(N(C)[C@H](C)C(C)C)n2n1 :: 0.96
C[C@@H](Nc1c(-c2c(F)cc(C#CCCN)cc2F)c(Cl)nc2ncnn12)C(C)(C)C [TAL-580, hydrochloride] :: 0.91
C[C@@H](Nc1c(-c2c(F)cc(C#CCCO)cc2F)c(Cl)nc2ncnn12)C(C)(C)C :: 0.98

Challenge: Complete the entry with fold induction at 10 µM for CNCC#Cc1cc(F)c(-c2c(Cl)nc3ncnn3c2N[C@H](C)C(C)C)c(F)c1 [TAL-637, hydrochloride]
Response given: 0.96
